# Tested on: Lolium perenne (LOLPE)
# Run description: Post-emergence herbicidal glasshouse test, Lolium perenne
# Assay type: in vivo
# Assay conditions: 312 h, rate 250 g/ha, evaluated after 13 days, scale 100 = total damage to plant, 0 = no damage
For each entry below, report its pest or weed control at 250 g/ha value.
Answers are plain numbers, in %.

Prompt: Give its pest or weed control at 250 g/ha value. Item: CCc1cc(-c2ccc(F)cc2)ccc1C1=C(OC(=O)C(C)(C)C)C(C)OC(C)(C)C1=O (stereo not shown)
Completion: 80

Batch request: pest or weed control at 250 g/ha for each of the following molecules.
1. CCc1cc(-c2ccc(Cl)cn2)ccc1C1=C(O)C(C)(C)OC(C)(C)C1=O
2. CCc1cc(-c2ccc(C)cc2)ccc1C1=C(O)C(C)(C)OC(C)(C)C1=O
3. CCc1cc(-c2cc(Cl)cc(C(F)(F)F)c2)ccc1C1=C(O)C(C)(C)OC(C)(C)C1=O
4. CCc1cc(-c2cc(F)c(F)c(F)c2)ccc1C1=C(O)C(C)(COC)OC(C)(C)C1=O (stereo not shown)
5. CCc1cc(-c2cccc(OC)c2)ccc1C1=C(O)C(C)(C)OC(C)(C)C1=O
6. CCc1cc(-c2ccc(F)c(OC)c2)ccc1C1=C(O)C(C)(C)SC(C)(C)C1=O
7. CCc1cc(-c2ccc(Cl)cc2)ccc1C1=C(O)C(C)(C)OC(C)(C)C1=O
8. CCc1cc(-c2ccc(F)cc2)ccc1C1=C(O)C(C)OC(C)(C)C1=O (stereo not shown)

Completion:
80
60
70
100
80
50
90
90

For each of the molecules below, note its pest or weed control at 250 g/ha.
1. Cc1cc(-c2ccc(F)cc2)cc(C)c1C1=C(O)[C@@]2(C)CC[C@H](O2)C1=O
2. CC1(C)OC(C)(C)C(O)=C(c2ccc(-c3ccc(F)cc3)cc2OC(F)(F)F)C1=O
3. CCc1cc(-c2ccc(F)c(F)c2F)ccc1C1=C(O)C(C)(C)C(=O)C(C)(C)C1=O
4. CCc1cc(-c2ccc(C)c(F)c2)ccc1C1=C(O)C(C)(C)OC(C)(C)C1=O
5. CCc1cc(-c2ccc(F)c(F)c2)ccc1C1=C(O)C(C)(C)C(=O)C(C)(C)C1=O
6. CCc1cc(-c2ccc(Cl)c(F)c2F)ccc1C1=C(O)C(C)(C)OC(C)(C)C1=O
7. CCc1cc(-c2ccc(Cl)c(Cl)c2)ccc1C1=C(OC(C)=O)C(C)(C)OC(C)(C)C1=O

Completion:
1. 100
2. 60
3. 60
4. 70
5. 80
6. 60
7. 80
